test-target: PI3Kβ (Homo sapiens)
Construct: purchased DiscoveRx Corporation, San Diego (contract service, KINOMEscan)
Sequence (P42338 whole entry): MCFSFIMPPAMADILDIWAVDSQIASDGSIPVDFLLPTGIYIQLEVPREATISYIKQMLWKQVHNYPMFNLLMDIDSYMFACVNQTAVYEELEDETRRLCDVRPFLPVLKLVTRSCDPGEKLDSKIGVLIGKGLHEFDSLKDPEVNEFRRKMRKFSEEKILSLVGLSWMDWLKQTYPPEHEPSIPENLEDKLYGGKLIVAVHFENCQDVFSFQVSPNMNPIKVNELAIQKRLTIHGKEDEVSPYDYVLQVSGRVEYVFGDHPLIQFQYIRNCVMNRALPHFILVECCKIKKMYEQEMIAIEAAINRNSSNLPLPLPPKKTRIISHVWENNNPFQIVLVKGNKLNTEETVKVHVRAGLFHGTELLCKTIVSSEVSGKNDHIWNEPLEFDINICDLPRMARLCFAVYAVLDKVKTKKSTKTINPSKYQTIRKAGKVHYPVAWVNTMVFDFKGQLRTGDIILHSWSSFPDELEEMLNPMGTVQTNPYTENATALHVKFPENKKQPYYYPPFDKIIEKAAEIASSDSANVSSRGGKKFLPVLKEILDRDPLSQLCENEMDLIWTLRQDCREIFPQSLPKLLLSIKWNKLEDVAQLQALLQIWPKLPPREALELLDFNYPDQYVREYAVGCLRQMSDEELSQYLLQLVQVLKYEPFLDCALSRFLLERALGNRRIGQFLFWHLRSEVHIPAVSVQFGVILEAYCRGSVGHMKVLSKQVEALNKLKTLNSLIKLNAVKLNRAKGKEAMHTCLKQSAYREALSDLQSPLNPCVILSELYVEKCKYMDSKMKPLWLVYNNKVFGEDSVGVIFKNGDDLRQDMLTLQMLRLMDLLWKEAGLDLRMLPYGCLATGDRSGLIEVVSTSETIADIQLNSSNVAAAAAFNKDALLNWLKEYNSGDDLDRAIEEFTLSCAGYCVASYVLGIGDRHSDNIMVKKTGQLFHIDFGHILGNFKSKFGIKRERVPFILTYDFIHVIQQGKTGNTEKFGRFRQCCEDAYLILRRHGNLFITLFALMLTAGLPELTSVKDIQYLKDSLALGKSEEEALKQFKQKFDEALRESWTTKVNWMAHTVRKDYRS
assay-explanation: Enzyme binding assay (KINOMEscan, DiscoveRx)
reported-conditions: PIK3Cβ_h, read-out: Kd PIK3Cβ_h
pKd: −log10 of the molar value.
Returns one of met or not met; met when pKd is >= 8.

{"columns": ["compound", "classification"],
 "data": [
  ["CC(Nc1cc(F)cc(F)c1)c1cc(C(=O)N2CCNC(C(F)(F)F)C2)cc2ncc(N3CCOCC3)nc12 (single isomer, unassigned) [Compound 237d]", "not met"],
  ["COC(=O)c1cc(C(C)Nc2cc(F)cc(F)c2)c2nc(N3CCOCC3)cnc2c1 (centres unmarked) [Compound 80]", "not met"],
  ["CC(Oc1cc(F)cc(F)c1)c1cc(C(=O)N(C)C)cc2ncc(C3=CCOCC3)nc12 (single isomer, unassigned) [Compound 403b]", "not met"],
  ["CC(Oc1cc(F)cc(F)c1)c1cc(-c2cnc[nH]2)cc2ncc(N3CCOCC3)nc12 (single isomer, unassigned) [Compound 22]", "not met"],
  ["CC(Oc1ccc(F)c(F)c1)c1cc(C(=O)N(C)CCN(C)C)cc2ncc(N3CCOCC3)nc12 (centres unmarked)", "met"],
  ["O=C(c1cc(C2CCCN2c2cc(F)cc(F)c2)c2nc(N3CCOCC3)cnc2c1)N1CC2(COC2)C1 (single isomer, unassigned)", "met"]
]}

Exercise: Please check the record CC(C)NCCNC(=O)c1cc(C(C)Nc2cccc(F)c2)c2nc(N3CCOCC3)cnc2c1 (single isomer, unassigned) [Compound 228] and state if its pKd is at or above 8.
Key: not met

Exercise: Please check the record `CN(C)CCNC(=O)c1cc(CNc2cc(F)cc(F)c2)c2nc(N3CCOCC3)cnc2c1` and state if its pKd is at or above 8.
Key: met

Exercise: Please check the record O=C(O)c1cc(C2CCCN2c2cc(F)cc(F)c2)c2nc(N3CCOCC3)cnc2c1 (single isomer, unassigned) [Compound 251] and state if its pKd is at or above 8.
Key: met

Exercise: Please check the record CC(O)c1cc(C2CCCN2c2cc(F)cc(F)c2)c2nc(N3CCOCC3)cnc2c1 (centres unmarked) [Compound 16] and state if its pKd is at or above 8.
Key: met

Exercise: Please check the record O=C(NCCO)c1cc(N2CCCC2c2cc(F)cc(F)c2)c2nc(N3CCOCC3)cnc2c1 (single isomer, unassigned) [Compound 245] and state if its pKd is at or above 8.
Key: not met

* * *

test-target: PI3Kβ (Homo sapiens)
Construct: purchased DiscoveRx Corporation, San Diego (contract service, KINOMEscan)
assay-explanation: Enzyme binding assay (KINOMEscan, DiscoveRx)
reported-conditions: PIK3Cβ_h, read-out: Kd PIK3Cβ_h
assay-metric: Kd (nM)
Value expressed in nM; do not type the unit.

Worked set:
{"columns": ["compound", "units-symbol", "Kd"],
 "data": [
  ["CC(Nc1cc(F)cc(F)c1)c1cc(C(=O)NCCO)cc2ncc(N3CCOCC3)nc12 (single isomer, unassigned) [Compound 188]", "nM", 1],
  ["CC(Nc1cc(F)cc(F)c1)c1cc(CN2CCOCC23COC3)cc2ncc(N3CCOCC3)nc12 (single isomer, unassigned) [Compound 192]", "nM", 9120]
]}

Exercise: Look up Kd for this compound: CC(Nc1cc(F)cc(F)c1)c1cc(C(=O)N(C)CCN(C)C)cc2ncc(N3CCOCC3)nc12 (single isomer, unassigned) [Compound 181]
Key: 117

Exercise: Look up Kd for this compound: CC(Nc1cc(F)cc(F)c1)c1cc(C(=O)N(C)CCN(C)C)cc2ncc(N3CCOCC3)nc12 (single isomer, unassigned) [Compound 182]
Key: 0.3

Exercise: Look up Kd for this compound: CC(Nc1ccc(F)c(F)c1)c1cc(C(=O)N2CCC[C@H](O)C2)cc2ncc(N3CCOCC3)nc12 (single isomer, unassigned) [Compound 302b]
Key: 3

Exercise: Look up Kd for this compound: CNCCN(C)C(=O)c1cc(C(C)Nc2cc(F)c(F)c(F)c2)c2nc(N3CCOCC3)cnc2c1 (single isomer, unassigned) [Compound 335b]
Key: 11

Exercise: Look up Kd for this compound: CC(Oc1cccc(F)c1)c1cc(C(=O)O)cc2ncc(N3CCOCC3)nc12 (single isomer, unassigned) [Compound 257c]
Key: 603

Exercise: Look up Kd for this compound: Cc1cc(C2CCCN2c2cc(F)cc(F)c2)c2nc(N3CCOCC3)cnc2c1 (single isomer, unassigned) [Compound 106]
Key: 6

Exercise: Look up Kd for this compound: CNCCN(C)C(=O)c1cc(C(C)Oc2cc(F)c(F)c(F)c2)c2nc(N3CCOCC3)cnc2c1 (single isomer, unassigned) [Compound 379b]
Key: 1260

Exercise: Look up Kd for this compound: CN[C@H]1CCN(C(=O)c2cc(C(C)Nc3cc(F)c(F)c(F)c3)c3nc(N4CCOCC4)cnc3c2)C1 (single isomer, unassigned) [Compound 297b]
Key: 0.5

Exercise: Look up Kd for this compound: Cc1ccc(NC(C)c2cc(C(=O)NCCN(C)C)cc3ncc(N4CCOCC4)nc23)cc1F (single isomer, unassigned) [Compound 407b]
Key: 339

Exercise: Look up Kd for this compound: COC(=O)c1cc(C2CCCN2c2cc(F)cc(F)c2)c2nc(N3CCOCC3)cnc2c1 (single isomer, unassigned) [Compound 249]
Key: 4

Exercise: Look up Kd for this compound: CC(Nc1cc(F)cc(F)c1)c1cc(C(=O)N2CCOCC2)cc2ncc(N3CCOCC3)nc12 (stereo not shown) [Compound 7]
Key: 2
